biological target: interaction between cTnC and switch peptide of cTnI (cTnISP) (Homo sapiens); test: Fluorescence polarization HTS and dose-response, cTnC/FAM-cTnISP; type: binding; details: cTnISP primary screen, TOCRIScreen library, single concentration 50 μmol/L
MEASUREMENT KIND: FP (mP)
Field: numeric (mP). Do not append units.

COc1ccc(Cl)cc1NC(=O)Nc1cc(C)nc2ccccc12 | 80.2
CCN(CC)CCCCN1c2ccccc2Oc2ccc(Cl)cc21.Cl [10-DEBC hydrochloride] | 82.8
COc1cc2ncnc(Nc3ccc(F)c(Cl)c3)c2cc1OCCCN1CCOCC1 | 81.8

We now examine a further compound.
Sure, the documented FP (mP) for `COc1ccc(N(C(=O)Oc2c(C)cccc2C)c2ccnc(Nc3ccc(N4CCN(C)CC4)cc3)n2)c(OC)c1` is 56.3

====

The molecules listed here are annotated with their FP (mP).
target: interaction between cTnC and switch peptide of cTnI (cTnISP) (Homo sapiens); experiment: Fluorescence polarization HTS and dose-response, cTnC/FAM-cTnISP; type: binding; settings: cTnISP primary screen, TOCRIScreen library, single concentration 50 μmol/L
Field note: include the unit after the figure.

Field: example entries. Status: answers known.
COc1cc(C(=O)NC2CCN(C)CC2)c(F)cc1Nc1ncc2c(n1)N(C1CCCC1)CC(F)(F)C(=O)N2C.Cl [TAK 960 hydrochloride] | 88 mP
COc1cc2c(Nc3ccc(NC(=O)c4ccccc4)cc3)ncnc2cc1OCCCN1CCOCC1 | 89.2 mP
CN(C(=O)CN1C(=O)COc2cc(Cl)c(Cl)cc21)[C@@H](CN1CCCC1)c1ccc(-c2cccc(C(N)=O)c2)cc1.Cl [GSK 1562590 hydrochloride] | 89.9 mP
Cc1c(-c2ccc(O)cc2)n(Cc2ccc(OCCN3CCCCCC3)cc2)c2ccc(O)cc12 [Bazedoxifene acetate] | 74.5 mP
OCCNC1CCCc2c1[nH]c1ccc(-c3ccccc3)cc21 (stereo not shown) | 80.4 mP

Sure, the documented FP (mP) for `COc1cc(C(=O)NC2CCN(C)CC2)ccc1Nc1ncc2c(n1)N(C1CCCC1)CC(F)(F)C(=O)N2C` is 81.8 mP

Sure, the documented FP (mP) for `N=C(N)c1ccc(-c2ccc(-c3ccc(C(=N)N)cc3)o2)cc1` is 83.1 mP
